MEASURED_TARGET: GCK (Homo sapiens, UniProt Q12851)
Construct: purchased Upstate, Millipore Bioscience Division (KinaseProfiler service)
Sequence (Q12851 1-820): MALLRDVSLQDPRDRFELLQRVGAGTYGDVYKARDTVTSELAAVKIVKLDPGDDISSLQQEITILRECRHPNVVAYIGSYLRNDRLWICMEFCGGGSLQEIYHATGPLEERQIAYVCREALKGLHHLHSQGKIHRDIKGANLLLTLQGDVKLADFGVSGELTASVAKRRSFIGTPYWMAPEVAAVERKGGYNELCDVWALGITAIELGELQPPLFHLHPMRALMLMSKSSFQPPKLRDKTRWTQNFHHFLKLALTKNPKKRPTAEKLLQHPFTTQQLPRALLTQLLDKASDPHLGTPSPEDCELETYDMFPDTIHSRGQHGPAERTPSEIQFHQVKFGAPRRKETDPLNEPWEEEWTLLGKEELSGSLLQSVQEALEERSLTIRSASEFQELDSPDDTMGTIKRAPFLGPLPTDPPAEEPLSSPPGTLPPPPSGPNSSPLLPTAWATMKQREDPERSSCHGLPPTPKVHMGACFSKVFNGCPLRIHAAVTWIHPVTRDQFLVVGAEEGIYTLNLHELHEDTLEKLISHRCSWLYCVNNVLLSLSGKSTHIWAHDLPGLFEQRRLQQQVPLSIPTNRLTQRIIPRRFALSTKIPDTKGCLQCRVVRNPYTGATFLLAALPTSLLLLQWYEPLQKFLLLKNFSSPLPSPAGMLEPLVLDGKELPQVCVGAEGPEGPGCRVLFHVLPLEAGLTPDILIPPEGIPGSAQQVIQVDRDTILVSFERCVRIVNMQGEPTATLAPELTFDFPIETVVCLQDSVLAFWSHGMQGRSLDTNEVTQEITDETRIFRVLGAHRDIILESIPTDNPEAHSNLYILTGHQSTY
PROTOCOL_TEXT: Kinase panel screen (KinaseProfiler), GCK
Assay type: biochemical
Listing: GCK Percent inhibition, 1 μM of selected molecules
Write the value in % as a bare number.

SMI | MEASUREMENT_UNITS | GCK Percent inhibition, 1 μM
NC(=O)Cn1ccc2cc(CN3CCC[C@@H](Nc4ccc5[nH]ncc5c4)C3)ccc21 | % | 93
Cc1ccc(CN2CCC[C@@H](Nc3ccc4[nH]ncc4c3)C2)cc1OCCO | % | 96
NC(=O)Cn1ccc2cc(CN3CC[C@@H](Nc4cccc5cnccc45)C3)ccc21 | % | 75

Note to self: GCK Percent inhibition, 1 μM of OCCn1ccc2cc(CN3CC[C@@H](Nc4cccc5cnccc45)C3)ccc21 with GCK (Homo sapiens, UniProt Q12851) was 39
